The following binders are shown together with reported pKd values.
test_target: T1, c-Met expressed on the surface of cynomolgus kidney cells (cynomolgus, UniProt A0A2K5UM36 25-1381)
T1 construct: also called cynomologus c-Met expressed on the cell surface
T1 sequence (A0A2K5UM36 entry or part of it limits assumed): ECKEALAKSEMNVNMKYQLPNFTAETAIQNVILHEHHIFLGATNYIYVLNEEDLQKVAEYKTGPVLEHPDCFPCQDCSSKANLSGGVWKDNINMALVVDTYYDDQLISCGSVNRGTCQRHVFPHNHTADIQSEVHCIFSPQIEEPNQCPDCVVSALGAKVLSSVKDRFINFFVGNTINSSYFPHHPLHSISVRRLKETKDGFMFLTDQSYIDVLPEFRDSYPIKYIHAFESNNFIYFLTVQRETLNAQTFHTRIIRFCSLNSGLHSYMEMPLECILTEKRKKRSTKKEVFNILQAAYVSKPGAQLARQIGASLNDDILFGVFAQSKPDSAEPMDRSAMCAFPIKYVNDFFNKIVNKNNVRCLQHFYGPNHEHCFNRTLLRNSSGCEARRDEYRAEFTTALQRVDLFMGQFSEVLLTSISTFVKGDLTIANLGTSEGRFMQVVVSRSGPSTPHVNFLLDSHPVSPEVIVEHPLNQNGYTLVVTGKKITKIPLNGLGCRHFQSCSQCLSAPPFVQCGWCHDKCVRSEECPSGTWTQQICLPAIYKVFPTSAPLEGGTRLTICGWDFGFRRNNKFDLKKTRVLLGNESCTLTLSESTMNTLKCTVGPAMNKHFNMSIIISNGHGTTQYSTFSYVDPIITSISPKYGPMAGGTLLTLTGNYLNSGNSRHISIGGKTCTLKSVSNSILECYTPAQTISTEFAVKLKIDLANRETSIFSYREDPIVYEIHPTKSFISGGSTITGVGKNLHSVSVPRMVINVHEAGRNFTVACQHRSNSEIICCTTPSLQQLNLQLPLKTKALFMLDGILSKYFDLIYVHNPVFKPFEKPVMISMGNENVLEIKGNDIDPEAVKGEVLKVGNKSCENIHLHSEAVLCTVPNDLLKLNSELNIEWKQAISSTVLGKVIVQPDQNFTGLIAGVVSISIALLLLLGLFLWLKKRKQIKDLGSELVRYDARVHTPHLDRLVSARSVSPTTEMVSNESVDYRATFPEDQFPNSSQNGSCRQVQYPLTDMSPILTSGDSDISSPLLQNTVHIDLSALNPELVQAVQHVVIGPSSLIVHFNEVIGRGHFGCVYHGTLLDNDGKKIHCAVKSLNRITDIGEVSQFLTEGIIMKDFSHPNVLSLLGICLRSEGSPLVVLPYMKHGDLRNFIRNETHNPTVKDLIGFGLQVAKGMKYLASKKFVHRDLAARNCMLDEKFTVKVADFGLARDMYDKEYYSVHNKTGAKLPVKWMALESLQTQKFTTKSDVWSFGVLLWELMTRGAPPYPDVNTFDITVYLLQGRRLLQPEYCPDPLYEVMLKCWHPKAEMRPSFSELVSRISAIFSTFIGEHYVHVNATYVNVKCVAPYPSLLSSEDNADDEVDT
assay_summary: flow cytometry on cynomolgus kidney cells, half-maximal binding at equilibrium
pKd: −log10 of the molar value.
endpoint_label: pKd

anti-c-Met monoclonal antibody 13.3.2 (antibody, human IgG2, kappa, V domains shown, Human IgG2 kappa from XenoMouse hybridoma; The variable positions X2, X4, X6, X8 correspond to positions 42, 97, 14 (heavy) and 91 (light), where position one is the N-terminal amino acid; these numbers may not count on the entry with its leader; also called PTA-5026) VH: QVQLVQSGAEVKKPGASVKVSCEASGYTFTSYGFSWVRQAPGQGLEWMGWISASNGNTYYAQKLQGRVTMTTDTSTSSAYMELRSLRSDDTAVYYCARVYADYADYWGQGTLVTVSS VL: DIQMTQSPSSVSASVGDRVTITCRASQGINTWLAWYQQKPGKAPKLLIYAASSLKSGVPSRFSGSGSGADFTLTISSLQPEDFATYYCQQANSFPLTFGGGTKVEIKR | 10.31
anti-c-Met monoclonal antibody 13.3.2L-A91T, H-E42K, S97T (antibody, human IgG2, kappa, V domains shown, positions 42, 97, 14 and 91 count from the N-terminal amino acid and may not count on the entry with its leader) VH: QVQLVQSGAEVKKPGASVKVSCKASGYTFTSYGFSWVRQAPGQGLEWMGWISASNGNTYYAQKLQGRVTMTTDTSTSTAYMELRSLRSDDTAVYYCARVYADYADYWGQGTLVTVSS VL: DIQMTQSPSSVSASVGDRVTITCRASQGINTWLAWYQQKPGKAPKLLIYAASSLKSGVPSRFSGSGSGTDFTLTISSLQPEDFATYYCQQANSFPLTFGGGTKVEIKR | 10.13
anti-c-Met monoclonal antibody 9.1.2 (antibody, V domains shown, Human IgG2 kappa; also called hybridoma 9.1.2 (LN 15884); PTA-5027) VH: QVQLQESGPGLVKPSQTLSLTCTVSGGSISSGGYYWSWIRQHPGKGLEWIGYIYYSGSTYYNPSLKSRVTISVDTSKNQFSLKLSSVTAADTAVYYCARDGPLGYCSSTSCPVTGEYYYYGMDVWGQGTTVTVSS VL: EIVLTQSPGTLSLSPGERATLSCRASQSVSNNYLAWYQQKPGQAPRLLIFGASSRATGIPDRFSGSGSGTDFTLTISRLEPEDFAVYYCQQYDISPMYSFGQGTKLEMKR | 9.77
anti-c-Met monoclonal antibody 8.70.2 (antibody, V domains shown, Human IgG2 kappa; also called hybridoma 8.70.2 (LN 15885); PTA-5028) VH: QLQLQESGPGLVKPSETLSLTCTVSGGSISSSSYYGGWIRQPPGKGLDWIGSIYYSGNTYYNPSLKSRVTISVDTSKNQFSLKLSSVTAADTAVYYCARHSWDYFDYWDQGTLVTVSS VL: DIQMTQSPSSVSASVGDRVTITCRASQGISSWLAWYQQKPGKAPKLLIYAASSLQSGVPSRFSGSGSGTDFTLTISSLQSEDFATYYCQQANSFPITFGPGTKVEIKR | 10.26
